- Test system: A549 lung adenocarcinoma cells
- testDetails: MTS cell viability assay, A549
- Assay type: cell-based, human
- assayConditions: Homo sapiens, A549, 24 h, read-out: Inhibition Cancer Cells IC50, A549 (Table III)
pIC50: −log10 of the molar value. Structures can show the parent of a compound that is named as a salt.
measure: pIC50

{"columns": ["compound", "numericValue"],
 "data": [
  ["N=C(N)[Se]CCc1ccc(CC[Se]C(=N)N)cc1 [PBISe, dihydrobromide]", 5.38]
]}
